- measurementDescription: Human HepG2 cell viability assay in 384 well format
- Assay type: toxicity, cell-based
- Set-up: dose 125 nL, time 70.5 hour; concentration not given beside the values
- assayContext: HepG2 cells, read-out: Inhibition
measuredParameter: cytotoxicity at 70.5 h (%)

[[record]]
compound = "COc1cccc(Nc2nc(-c3ccncc3)nc3c2CNCC3)c1"
measuredparameter = "cytotoxicity at 70.5 h"
unitdescriptor = "%"
measuredvalue = 24.2

[[record]]
compound = "Cc1nn(C)c2ncc(CN3CCCCCC3)cc12"
measuredparameter = "cytotoxicity at 70.5 h"
unitdescriptor = "%"
measuredvalue = -5.07

[[record]]
compound = "COCCOc1cccc(CNCc2c(C)nn(C)c2N(C)C)c1"
measuredparameter = "cytotoxicity at 70.5 h"
unitdescriptor = "%"
measuredvalue = -2.1

[[record]]
compound = "Cc1ccccc1C(=O)N1CCO[C@H]2[C@H](OCCN(C)C)CC[C@@H]21"
measuredparameter = "cytotoxicity at 70.5 h"
unitdescriptor = "%"
measuredvalue = -2.16

[[record]]
compound = "CC(=O)N1CCCCC[C@@H]2[C@@H]1[C@H](c1cccc(F)c1)CN2C(=O)C1CC1"
measuredparameter = "cytotoxicity at 70.5 h"
unitdescriptor = "%"
measuredvalue = -3.31

[[record]]
compound = "CCc1ncnc(N(C)CC2CCCCO2)c1F (stereo unspecified)"
measuredparameter = "cytotoxicity at 70.5 h"
unitdescriptor = "%"
measuredvalue = 2.36

[[record]]
compound = "N#Cc1cc2c(=O)n(CC(O)c3cccc(O)c3)ccc2[nH]c1=O (stereo unspecified)"
measuredparameter = "cytotoxicity at 70.5 h"
unitdescriptor = "%"
measuredvalue = -6.53

[[record]]
compound = "CCCn1nc2c(cc1=O)CN(Cc1nnc(C3CC3)o1)CC2"
measuredparameter = "cytotoxicity at 70.5 h"
unitdescriptor = "%"
measuredvalue = 10.1

[[record]]
compound = "O=C(c1ccno1)N1CCc2ncnc(-c3ccncc3)c2CC1"
measuredparameter = "cytotoxicity at 70.5 h"
unitdescriptor = "%"
measuredvalue = 1.37

[[record]]
compound = "CCNC(=O)NCc1cnn(-c2ccc(F)cc2F)c1"
measuredparameter = "cytotoxicity at 70.5 h"
unitdescriptor = "%"
measuredvalue = -10.2

[[record]]
compound = "c1nc(CCNc2nc(C3CC3)nc3c2CCNCC3)c[nH]1"
measuredparameter = "cytotoxicity at 70.5 h"
unitdescriptor = "%"
measuredvalue = -10.1


Value source: ChEMBL document CHEMBL3507680
